Values from patent US20050209278A1

Target: MMP-2 (Homo sapiens, UniProt P08253)
Construct: made in house; host or cells: MMP-2-transfected p2AHT2 cells
Sequence (P08253 110-660): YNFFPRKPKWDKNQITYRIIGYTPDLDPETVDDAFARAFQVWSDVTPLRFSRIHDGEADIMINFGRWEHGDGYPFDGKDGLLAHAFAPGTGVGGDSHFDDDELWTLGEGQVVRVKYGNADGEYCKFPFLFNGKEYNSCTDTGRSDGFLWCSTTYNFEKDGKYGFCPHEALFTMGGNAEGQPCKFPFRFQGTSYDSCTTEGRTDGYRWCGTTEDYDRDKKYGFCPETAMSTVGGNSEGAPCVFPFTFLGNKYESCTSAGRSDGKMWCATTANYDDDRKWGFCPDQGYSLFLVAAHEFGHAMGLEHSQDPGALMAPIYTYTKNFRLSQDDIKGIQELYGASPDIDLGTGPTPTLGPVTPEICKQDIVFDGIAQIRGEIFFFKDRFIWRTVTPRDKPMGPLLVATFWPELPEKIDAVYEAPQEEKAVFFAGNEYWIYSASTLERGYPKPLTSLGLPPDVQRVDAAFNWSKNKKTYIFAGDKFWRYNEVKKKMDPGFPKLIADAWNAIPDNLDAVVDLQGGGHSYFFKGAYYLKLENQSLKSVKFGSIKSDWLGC
Assay: In vitro MMP inhibition, Ki determination (fluorogenic substrate II)
Format: biochemical
Conditions: value not in parenthesis; read-out: MMP-2 Ki
OUTCOME MEASURE: Ki (nM)
Provide only the numeric value, understood in nM.

Solved entries:
COMPOUND	OUTCOME MEASURE	DATA VALUE
CCCCCCc1ccc(N2CCN(S(=O)(=O)C3(C(=O)NO)CCN(CCOC)CC3)CC2)cc1 [Example 199]	Ki	0.633
O=C(NO)C1(S(=O)(=O)N2CCN(c3ccc(Cl)nn3)CC2)CCOCC1 [Example 198]	Ki	8.28
CCCCOc1ccc(N2CCN(S(=O)(=O)C3(C(=O)NO)CCN(c4ccc(O)cc4)CC3)CC2)cc1 [Example 121]	Ki	2.15
O=C(NO)C1(S(=O)(=O)N2CCN(c3cccc(C(F)(F)F)c3)CC2)CCOCC1 [Example 82]	Ki	8.74

Endpoint output: Ki of CCc1ccc(N2CCN(S(=O)(=O)C3(C(=O)NO)CCOCC3)CC2)nc1 [Example 114] . Value?
0.367

// same read-out, input: CCCCOc1ccc(N2CCN(S(=O)(=O)C3(C(=O)NO)CCOCC3)CC2)nc1 [Example 100]
0.13

// same read-out, input: CCCCCc1ccc(N2CCN(S(=O)(=O)C3(C(=O)NO)CCN(c4ncccn4)CC3)CC2)nc1 [Example 95]
0.64

// same read-out, input: COCCN1CCC(C(=O)NO)(S(=O)(=O)N2CCN(c3ccccc3)CC2)CC1 [Example 195]
6.17

// same read-out, input: CCCCCc1ccc(N2CCN(S(=O)(=O)C3(C(=O)NO)CCN(C(=O)CC)CC3)CC2)cc1 [Example 206]
0.63

// same read-out, input: CCCCc1ccc(N2CCN(S(=O)(=O)C3(C(=O)NO)CCN(c4ccc(C)cc4)CC3)CC2)cc1 [Example 146]
6.41

// same read-out, input: CCCC(C)Cc1ccc(N2CCN(S(=O)(=O)C3(C(=O)NO)CCN(CCOC)CC3)CC2)cc1 (stereo not drawn) [Example 189]
9.78

// same read-out, input: CCCCOc1ccc(N2CCN(S(=O)(=O)C3(C(=O)NO)CCN(C(=O)N4CCCCC4)CC3)CC2)cc1 [Example 243]
0.34
